Listed below: intrinsic clearance (CLint) values for each entry.
test: Intrinsic clearance in human liver microsomes preincubated followed by NADPH addition and measured up to 45 mins by LC-MS/MS analysis; type: ADME, Microsome
Write the number in µL/min without appending the unit.

Example compounds with recorded intrinsic clearance (CLint):
CS(=O)(=O)CCCn1c(CN2C(=O)C3(CC3)c3ccc(F)cc32)nc2cc(CN)ccc21 | 3.78
CC(C)CCn1c(CN2C(=O)C3(CC3)c3cccnc32)nc2cc(CN)ccc21 | 177

Ask: What measured intrinsic clearance (CLint) goes with "NCc1ccc2c(c1)nc(CN1C(=O)C3(CC3)c3ccc(F)cc31)n2C1CCOCC1" ?
Reply: 66.4

---

Reported half-life values for a set of molecules
test: Half life in Beagle dog liver microsomes preincubated followed by NADPH addition and measured up to 45 mins by LC-MS/MS analysis
Give the value, in units of h, as a plain number.

NCc1ccc2c(c1)nc(CN1C(=O)C3(CC3)c3ccc(F)cc31)n2C1CCOCC1 | 55.8

Ask: Would you kindly share the measured half-life for NCc1ccc2c(c1)nc(CN1C(=O)C3(CC3)c3ccc(F)cc31)n2C1CCC(O)CC1 (centres undefined) ?
Reply: 4.6

---

Recorded measurements of log10 half-life, one per entry
assay: Half life in human liver microsomes preincubated followed by NADPH addition and measured up to 45 mins by LC-MS/MS analysis; format: ADME, Microsome
Please note: log10 values; quantity half-life; unit min.

Ask: Requested read-out: log10 half-life. Entry: "NCc1ccc2c(c1)nc(CN1C(=O)C3(CC3)c3ccc(F)cc31)n2CCCC(F)(F)F"
Reply: 1.51

Ask: What value of log10 half-life has been recorded for this entry: "NCc1ccc2c(c1)nc(CN1C(=O)C3(CC3)c3ccc(F)cc31)n2C1CCOCC1"
Reply: 1.32

Ask: Could you share which log10 half-life value was measured for "CC(C)CCn1c(CN2C(=O)C3(CC3)c3ccccc32)nc2cc(CN)ccc21" ?
Reply: 0.70

Ask: Data request, read-out log10 half-life, for "CC(C)CCn1c(CN2C(=O)C3(CCCC3)c3ccncc32)nc2cc(CN)ccc21"
Reply: 0.78

Ask: Param item = NCc1ccc2c(c1)nc(CN1C(=O)C3(CC3)c3ccc(F)cc31)n2C1CCC(O)CC1 (stereo not given) ; retrieve measured log10 half-life.
Reply: 2.48

---

assay: Tmax in Beagle dog at 3 mg/kg, […] by UHPLC-TOF method; type: ADME, organism-based, Canis lupus familiaris; conditions: in vivo, po
Result Type: Tmax (h)
Report only the number, with the unit h understood.

NCc1ccc2c(c1)nc(CN1C(=O)C3(CC3)c3ccc(F)cc31)n2C1CCOCC1 | 0.5

Moving on to another molecule below.
Ask: What value of Tmax has been recorded for this entry: NCc1ccc2c(c1)nc(CN1C(=O)C3(CC3)c3ccc(F)cc31)n2CCCC(F)(F)F [SISUNATOVIR]
Reply: 4

---

assay: Clearance in Sprague-Dawley rat at 50 mg/kg, po measured after 0.25 to 24 hrs by UHPLC-TOF method; format: ADME, organism-based; conditions: in vivo, time 0.25-24 hrs
Result Type: CL/F (mL/min/kg)
Give the number; mL/min/kg is assumed, so skip it.

Ask: Which CL/F is listed for "NCc1ccc2c(c1)nc(CN1C(=O)C3(CC3)c3ccc(F)cc31)n2CCCC(F)(F)F" ?
Reply: 164
